- method-notes: In vivo pharmacokinetic evaluation after i.v. and p.o. administration to rats
- Parameters: species or system rat
- applied-conditions: rat, plasma, iv, 2 mg/Kg, Rat 2, IV; read-out: t1/2 (converted)
parameter-measured: half-life (h)
# value in h; strip the unit string

**Query** Look up half-life: COC[C@H]1O[C@H](OCCc2ccccc2)[C@H](NC(=O)CCCN)[C@@H](OCc2ccc3ccccc3c2)[C@@H]1O [Compound 1]
**Result** 4.76

###

- assayed-system: Human SST5 somatostatin receptor (SSTR5) (Homo sapiens, UniProt P35346)
- Construct: expressed in transfected cells; host or cells: HEK-293 EBNA
- Sequence (P35346 whole entry): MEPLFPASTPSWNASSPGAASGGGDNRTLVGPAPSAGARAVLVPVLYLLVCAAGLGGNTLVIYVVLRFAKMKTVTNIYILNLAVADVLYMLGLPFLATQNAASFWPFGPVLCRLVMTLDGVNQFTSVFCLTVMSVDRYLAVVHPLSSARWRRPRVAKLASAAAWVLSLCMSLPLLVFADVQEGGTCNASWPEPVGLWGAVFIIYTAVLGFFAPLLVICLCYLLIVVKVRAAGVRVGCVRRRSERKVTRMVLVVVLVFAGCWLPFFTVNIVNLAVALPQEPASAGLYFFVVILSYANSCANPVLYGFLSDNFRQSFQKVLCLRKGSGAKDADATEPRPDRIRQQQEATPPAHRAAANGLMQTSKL
- method-notes: Filter plate assay for SST5 receptor, displacement of [125I]SST-14
- Type: binding
- applied-conditions: 10 uM
parameter-measured: SSTR5 Inhib 10 uM % (inhibition of binding of SST-14 to SSTR5) (%)
# value in %; strip the unit string

**Query** Look up SSTR5 Inhib 10 uM % (inhibition of binding of SST-14 to SSTR5): COC[C@H]1OC(OCc2ccc(Cl)cc2)[C@H](NC(=O)CCCN)[C@@H](OCc2ccccc2)[C@@H]1O (stereo partly shown)
**Result** 73

**Query** Look up SSTR5 Inhib 10 uM % (inhibition of binding of SST-14 to SSTR5): COC[C@H]1OC(OCc2ccc(Cl)cc2)[C@H](NC(=O)CCCNC(=N)N)[C@@H](OCc2ccc(Cl)cc2)[C@@H]1O (stereo partly shown)
**Result** 91

**Query** Look up SSTR5 Inhib 10 uM % (inhibition of binding of SST-14 to SSTR5): COC[C@H]1OC(OCc2ccc3ccccc3c2)[C@H](NC(=O)CCCN)[C@H](OCc2ccccc2)[C@@H]1O (stereo partly shown)
**Result** 86

**Query** Look up SSTR5 Inhib 10 uM % (inhibition of binding of SST-14 to SSTR5): COC[C@H]1OC(OCc2ccc(Cl)cc2)[C@H](NC(=O)CCNC(=N)N)[C@@H](OCc2ccc(Cl)cc2)[C@@H]1O (stereo partly shown)
**Result** 81
